Where do these numbers come from? They come from FireProtDB (doi:10.1016/0022-2836(92)90387-y).

Listing: unfolding free energy of selected variants
B1: Ribonuclease, P00648 (parent)
chain: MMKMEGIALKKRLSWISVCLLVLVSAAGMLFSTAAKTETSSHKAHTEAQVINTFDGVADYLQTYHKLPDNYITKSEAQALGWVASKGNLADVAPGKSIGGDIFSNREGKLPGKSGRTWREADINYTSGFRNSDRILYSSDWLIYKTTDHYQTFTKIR

Variants of: B1
Details: Bacillus amyloliquefaciens; pH 6.3; 25 °C; Urea; Fluorescence; MES 50 mM; reversible: yes; structure 1BNI; whole UniProt chain shown
Answer with the value and then the unit.

Y150F: 8.83 kcal/mol
R106A: 9.47 kcal/mol
K74A: 9.19 kcal/mol
E120A: 6.53 kcal/mol

Looking for the measured unfolding free energy of `Q151A` , can you help?
8.67 kcal/mol

Looking for the measured unfolding free energy of `N105D` , can you help?
9.23 kcal/mol
